Test system: MDA-MB-453
experimental protocol: normalised viability (% of control), CellTiter-Blue; higher = more viable cells (about 100 = DMSO control)
measurement conditions: incubation time: 72 h
measured property: normalised viability (%)
Write down the numeric answer in % and omit the unit.

Some entries whose results are on file:
CC(C)C[C@H](NC(=O)[C@H](Cc1ccccc1)NC(=O)c1cnccn1)B(O)O [Bortezomib] (1000 nM) | 11.1
COc1cccc2c1C(=O)c1c(O)c3c(c(O)c1C2=O)C[C@@](O)(C(C)=O)C[C@@H]3O[C@H]1C[C@H](N)[C@H](O)[C@H](C)O1 [Daunorubicin] (1000 nM) | 11.6

Enquiry: Look up normalised viability: COc1ccc(C2=N[C@@H](c3ccc(Cl)cc3)[C@@H](c3ccc(Cl)cc3)N2C(=O)N2CCNC(=O)C2)c(OC(C)C)c1 [Nutlin-3] (10000 nM)
Return: 90

Reference source for all entries: the supplement of paper PMC4862054
